Tested on: STIL CCD peptide
Test: AUC sedimentation velocity (SV), oligomeric state
Assay type: physicochemical
Conditions: 10 µM; AUC-SV, continuous c(s), 60 krpm, 20 °C, 25 mM sodium phosphate pH 6.8, NaCl, absorbance; 95% confidence level
PARAMETER: oligomeric state (average number of monomers in the oligomer) (× monomer mass)

A selection of reference data follows.
1. L SPDLYRF LTELDRQ LRLLQAQ IQRLLEA QSL-NH2 [STIL CCD718–749 A722L Q729L, STIL CCD peptide, double mutant of A722L and Q729L] | 4.22
2. L SPDAYRF LTELDRQ LRLLQAQ IQRLLEA QSL-NH2 [STIL CCD718–749 Q729L, STIL CCD peptide with stabilising Q729L mutation; PDB 8oyl] | 3.56

[I] L SPDAYRF LTEQDRQ LRLEQAQ IQRLLEA QSL-NH2 [STIL CCD718–749 L736E, STIL CCD peptide with destabilising L736E mutation; PDB 8oyk]
[II] L SPDLYRF LTEQDRQ LRLLQAQ IQRLLEA QSL-NH2 [STIL CCD718–749 A722L, STIL CCD peptide with A722L mutation]
stdin: oligomeric state (average number of monomers in the oligomer) comparison. Which is larger, I or II ? Write down the label attached to your selection.
stdout: II
